Values compiled from patent US10364323B2.

- ASSAY COMMENT: physchem
QUANTITY MEASURED: pKa
Write no unit; give the number alone.

COMPOUND	pKa
O=C(O)CCCCCC(=O)O [Pimelic acid]	4.71

Turning to the following compound.
INPUT: Can you share its pKa? I mean this compound: O=C(O)C(=O)O [Oxalic acid]
OUTPUT: 1.46
